Measured WBC of individual entries
species: Rattus norvegicus; test: Open TG-GATES - Regimen: Daily Repeat; assay type: toxicity, organism-based, Sprague-Dawley; set-up: regimen Daily Repeat, gender Male, age 6 weeks; conditions: in vivo, po, 100 mg/kg, […], tissue Blood, route gavage, dose level Low, time 28 day
The reply should contain only the number, in x10_2/uL.

[[record]]
molecule = "NC(N)=Nc1nc(CSCCC(N)=NS(N)(=O)=O)cs1"
measurement_unit = "x10_2/uL"
quantitative_readout = 90.2

[[record]]
molecule = "COc1ccc2[nH]c([S+]([O-])Cc3ncc(C)c(OC)c3C)nc2c1 (stereo not given)"
measurement_unit = "x10_2/uL"
quantitative_readout = 100.5

[[record]]
molecule = "CCOC(=O)CCC(=O)O[C@H]1[C@H](O[C@@H]2[C@@H](C)[C@H](O[C@H]3C[C@@](C)(OC)[C@@H](O)[C@H](C)O3)[C@@H](C)C(=O)O[C@H](CC)[C@@](C)(O)[C@H](O)[C@@H](C)C(=O)[C@H](C)C[C@@]2(C)O)O[C@H](C)C[C@@H]1N(C)C [ERYTHROMYCIN ETHYLSUCCINATE]"
measurement_unit = "x10_2/uL"
quantitative_readout = 102.2

[[record]]
molecule = "CCOc1ccc(NC(=O)CC(C)O)cc1 (stereo not given)"
measurement_unit = "x10_2/uL"
quantitative_readout = 132


Consider the additional molecule presented here.
## Task So what's the measured WBC for this one? `COC1=CC(=O)C[C@@H](C)[C@]12Oc1c(Cl)c(OC)cc(OC)c1C2=O`
## Result 138.9

---

species: Rattus norvegicus; test: Open TG-GATES - Regimen: Single; format: toxicity, organism-based, Sprague-Dawley; design: regimen Single, gender Male, age 6 weeks; conditions: in vivo, po, 10 mg/kg, 6 h, tissue Plasma, route gavage, dose level Low
Measured CRE of individual entries
In your response, put the unit directly after the numeric value.

As a guide, the following entries are already answered.
[[record]]
compound = "CC1=C(/C=C/C(C)=C/C=C/C(C)=C/CO)C(C)(C)CCC1"
result = "0.1 mg/dL"

[[record]]
compound = "CN(C)CCCN1c2ccccc2CCc2ccccc21"
result = "0.2 mg/dL"

[[record]]
compound = "CN(C)CCCN1c2ccccc2CCc2ccc(Cl)cc21"
result = "0.2 mg/dL"


## Task So what's the measured CRE for this one? CC(C)OC(=O)C(C)(C)Oc1ccc(C(=O)c2ccc(Cl)cc2)cc1 [FENOFIBRATE]
## Result 0.2 mg/dL

## Task Also check `CN(C)CCN(Cc1cccs1)c1ccccn1`
## Result 0.1 mg/dL

---

species on record: Rattus norvegicus; test: Open TG-GATES - Regimen: Daily Repeat; type: toxicity, organism-based, Sprague-Dawley; parameters: regimen Daily Repeat, gender Male, age 6 weeks; settings: in vivo, po, 0 mg/kg, […], tissue Liver, route gavage, dose level Control, time 28 day
RECORDED_ENDPOINT: LIVER (g)
The reply should contain only the number, in g.

[[record]]
compound = "NC(N)=Nc1nc(CSCCC(N)=NS(N)(=O)=O)cs1"
quantitative_readout = 15.1

[[record]]
compound = "CCOC(=O)CCC(=O)O[C@H]1[C@H](O[C@@H]2[C@@H](C)[C@H](O[C@H]3C[C@@](C)(OC)[C@@H](O)[C@H](C)O3)[C@@H](C)C(=O)O[C@H](CC)[C@@](C)(O)[C@H](O)[C@@H](C)C(=O)[C@H](C)C[C@@]2(C)O)O[C@H](C)C[C@@H]1N(C)C [ERYTHROMYCIN ETHYLSUCCINATE]"
quantitative_readout = 14.6

[[record]]
compound = "CN(C)CCN(Cc1cccs1)c1ccccn1"
quantitative_readout = 13.4

[[record]]
compound = "COc1ccc2[nH]c([S+]([O-])Cc3ncc(C)c(OC)c3C)nc2c1 (stereo not drawn)"
quantitative_readout = 14.7


## Task So what's the measured LIVER for this one? `CN1C(=O)CN=C(c2ccccc2)c2cc(Cl)ccc21`
## Result 17.1

## Task Also check CCOc1ccc(NC(=O)CC(C)O)cc1 (stereo not drawn)
## Result 16.3

## Task Also check `COC1=CC(=O)C[C@@H](C)[C@]12Oc1c(Cl)c(OC)cc(OC)c1C2=O`
## Result 16.1

## Task Also check `NNC(=O)c1ccncc1`
## Result 15.5

---

Measured Eos of individual entries
organism: Rattus norvegicus; test: Open TG-GATES - Regimen: Single; type: toxicity, organism-based, Sprague-Dawley; parameters: regimen Single, gender Male, age 6 weeks; details: in vivo, po, 0 mg/kg, 3 h, tissue Blood, route gavage, dose level Control
The reply should contain only the number, in %.

As a guide, the following entries are already answered.
[[record]]
compound = "CC/C(=C(\\c1ccccc1)c1ccc(OCCN(C)C)cc1)c1ccccc1"
measurement_unit = "%"
quantitative_readout = 0.8

[[record]]
compound = "CN(C)CCN(Cc1cccs1)c1ccccn1"
measurement_unit = "%"
quantitative_readout = 0.4

[[record]]
compound = "CCOc1ccc(NC(=O)CC(C)O)cc1 (stereo unspecified)"
measurement_unit = "%"
quantitative_readout = 1

[[record]]
compound = "NNC(=O)c1ccncc1"
measurement_unit = "%"
quantitative_readout = 1

[[record]]
compound = "C[C@@H]1C[C@H]2[C@@H]3CCC4=CC(=O)C=C[C@]4(C)[C@@]3(F)[C@@H](O)C[C@]2(C)[C@@]1(O)C(=O)CO"
measurement_unit = "%"
quantitative_readout = 1


Consider the additional compound presented here.
## Task So what's the measured Eos for this one? `CN(C)CCCN1c2ccccc2CCc2ccccc21`
## Result 1

---

species on record: Rattus norvegicus; assay: Open TG-GATES - Regimen: Single; type: toxicity, organism-based, Sprague-Dawley; design: regimen Single, gender Male, age 6 weeks; conditions: in vivo, po, 100 mg/kg, 24 h, route gavage, dose level High
Measured TERMINAL_BW of individual entries
The reply should contain only the number, in g.

[[record]]
structure = "CN(C)CCCN1c2ccccc2CCc2ccc(Cl)cc21"
recorded_endpoint = "TERMINAL_BW"
measurement_unit = "g"
quantitative_readout = 217.7


## Task So what's the measured TERMINAL_BW for this one? `CN(C)CCN(Cc1cccs1)c1ccccn1`
## Result 193.3

## Task Also check `CN(C)CCCN1c2ccccc2CCc2ccccc21`
## Result 198.2

## Task Also check `CC1=C(/C=C/C(C)=C/C=C/C(C)=C/CO)C(C)(C)CCC1`
## Result 207.3

---

organism: Rattus norvegicus; assay: Open TG-GATES - Regimen: Single; format: toxicity, organism-based, Sprague-Dawley; set-up: regimen Single, gender Male, age 6 weeks; conditions: in vivo, po, 100 mg/kg, 9 h, tissue Blood, route gavage, dose level High
Measured PT of individual entries
The reply should contain only the number, in s.

[[record]]
structure = "CC1=C(/C=C/C(C)=C/C=C/C(C)=C/CO)C(C)(C)CCC1"
quantitative_readout = 15.5

[[record]]
structure = "CN(C)CCCN1c2ccccc2CCc2ccccc21"
quantitative_readout = 15.8

[[record]]
structure = "CN(C)CCCN1c2ccccc2CCc2ccc(Cl)cc21"
quantitative_readout = 13.9


## Task So what's the measured PT for this one? `CN(C)CCN(Cc1cccs1)c1ccccn1`
## Result 16.2

---

Measured Plat of individual entries
organism: Rattus norvegicus; test: Open TG-GATES - Regimen: Daily Repeat; format: toxicity, organism-based, Sprague-Dawley; parameters: regimen Daily Repeat, gender Male, age 6 weeks; conditions: in vivo, po, 0 mg/kg, 72 h, tissue Blood, route gavage, dose level Control, time 3 day
In your response, put the unit directly after the numeric value.

[[record]]
molecule = "CC(C)OC(=O)C(C)(C)Oc1ccc(C(=O)c2ccc(Cl)cc2)cc1 [FENOFIBRATE]"
recorded_endpoint = "Plat"
result = "108.4 x10_4/uL"


## Task So what's the measured Plat for this one? O=C(CCCN1CCC(O)(c2ccc(Cl)cc2)CC1)c1ccc(F)cc1 [HALOPERIDOL]
## Result 119.4 x10_4/uL

## Task Also check CN1C(=O)CN=C(c2ccccc2)c2cc(Cl)ccc21 [DIAZEPAM]
## Result 114.2 x10_4/uL

## Task Also check CCCNC(=O)NS(=O)(=O)c1ccc(Cl)cc1 [CHLORPROPAMIDE]
## Result 120.9 x10_4/uL

## Task Also check NNC(=O)c1ccncc1 [ISONIAZID]
## Result 120.9 x10_4/uL

---

species: Rattus norvegicus; test: Open TG-GATES - Regimen: Single; type: toxicity, organism-based, Sprague-Dawley; design: regimen Single, gender Male, age 6 weeks; conditions: in vivo, po, 300 mg/kg, 3 h, tissue Blood, route gavage, dose level Middle
RECORDED_ENDPOINT: Fbg (mg/dL)
The reply should contain only the number, in mg/dL.

As a guide, the following entries are already answered.
[[record]]
compound = "COc1ccc2[nH]c([S+]([O-])Cc3ncc(C)c(OC)c3C)nc2c1 (centres undefined)"
measurement_unit = "mg/dL"
quantitative_readout = 216.4

[[record]]
compound = "NC(N)=Nc1nc(CSCCC(N)=NS(N)(=O)=O)cs1"
measurement_unit = "mg/dL"
quantitative_readout = 213.2

[[record]]
compound = "COC1=CC(=O)C[C@@H](C)[C@]12Oc1c(Cl)c(OC)cc(OC)c1C2=O"
measurement_unit = "mg/dL"
quantitative_readout = 229.2


Consider the additional compound presented here.
## Task So what's the measured Fbg for this one? CCOC(=O)CCC(=O)O[C@H]1[C@H](O[C@@H]2[C@@H](C)[C@H](O[C@H]3C[C@@](C)(OC)[C@@H](O)[C@H](C)O3)[C@@H](C)C(=O)O[C@H](CC)[C@@](C)(O)[C@H](O)[C@@H](C)C(=O)[C@H](C)C[C@@]2(C)O)O[C@H](C)C[C@@H]1N(C)C [ERYTHROMYCIN ETHYLSUCCINATE]
## Result 294.4
